meta.source: patent US11738027B2

molecular target: human MPO (Homo sapiens, UniProt P05164); assay: MPO inhibition; conditions: read-out: IC50, irreversible inhibitor of human MPO
Sequence (P05164 49-745): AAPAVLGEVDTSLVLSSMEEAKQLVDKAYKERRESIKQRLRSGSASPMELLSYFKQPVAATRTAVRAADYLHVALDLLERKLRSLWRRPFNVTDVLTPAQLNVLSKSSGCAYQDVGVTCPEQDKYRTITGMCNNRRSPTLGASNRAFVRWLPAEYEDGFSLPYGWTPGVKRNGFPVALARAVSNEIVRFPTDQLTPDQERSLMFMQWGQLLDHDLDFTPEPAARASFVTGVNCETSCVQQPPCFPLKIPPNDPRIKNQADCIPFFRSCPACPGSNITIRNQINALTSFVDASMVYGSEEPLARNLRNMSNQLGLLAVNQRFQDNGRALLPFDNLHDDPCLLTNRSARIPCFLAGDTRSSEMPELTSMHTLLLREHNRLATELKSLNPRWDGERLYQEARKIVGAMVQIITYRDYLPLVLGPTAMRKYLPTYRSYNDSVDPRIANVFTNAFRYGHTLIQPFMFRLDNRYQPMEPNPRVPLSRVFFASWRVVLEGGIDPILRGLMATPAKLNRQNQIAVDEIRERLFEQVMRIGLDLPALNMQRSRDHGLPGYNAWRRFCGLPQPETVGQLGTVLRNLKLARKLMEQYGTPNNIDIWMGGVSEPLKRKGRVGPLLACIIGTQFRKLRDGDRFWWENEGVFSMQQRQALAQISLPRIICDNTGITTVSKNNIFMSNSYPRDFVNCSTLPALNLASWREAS
PROPERTY MEASURED: IC50 (nM)
Response body: numeric value in nM, unit text excluded.

Read the entry O=c1[nH]c(=S)n(C[C@H]2CCCO2)c2nc[nH]c12 and write its reported IC50.
140
